Would you kindly list %Inh for each of these compounds?
Tested on: AKT3
Settings: concentration: 1 μM, replicates: in singlicate; n = 1
Answer format: numeric, % implied, no suffix.

What does the data say about its %Inh? Entry: Cc1c2ccc(N(C)c3ccnc(Nc4cccc(S(N)(=O)=O)c4)n3)cc2nn1Cc1ccccc1.Cl.Cl
0

Which %Inh value is on record for NCC(NC(=O)c1cc(-c2cn[nH]c2)c(-c2ccnc3[nH]ccc23)s1)c1ccccc1.O=C(O)C(F)(F)F.O=C(O)C(F)(F)F (stereo not shown) ?
83

Fill in: %Inh of O=c1cc(N2CCOCC2)nc2n(Cc3cccc(Cl)c3Cl)c(C3CC3)nn12 is ___
0

Endpoint output: %Inh of O=C(c1ccc(-c2cc(-c3c[nH]nc3-c3ccccn3)ccn2)cc1)N1CCOCC1 . Value?
0

###

System: DRAK1
Construct: gene STK17A
Details: concentration: 1 μM, replicates: in singlicate; n = 1
Please use 1.0 for %Inh under 4% and 0.0 for everything else, ties included.

Lab note: %Inh threshold 4%. Does this molecule come in strictly under it? N#Cc1ccc(-c2cc(-c3c[nH]nc3-c3ccccn3)ccn2)cc1 [GW693028]
1.0

Just wondering, is %Inh of Nc1nccc(-c2c(-c3ccc(F)cc3)ncn2C2CCN(CC(F)(F)F)CC2)n1 [SB-236560] below 4%?
1.0

is_below(%Inh, 4%) for CCc1nc(-c2cccc(C)c2)c(-c2ccnc(NCc3ccccc3)c2)s1 ?
1.0

Please check: %Inh for Cn1cc(-c2ccc3c(c2)CCN3C(=O)Cc2ccccc2Cl)c2c(N)ncnc21 [GSK2608885] , strictly under 4% or not?
1.0

Would you kindly verify if %Inh of c1ccc(-c2n[nH]cc2-c2ccnc3ccccc23)nc1 [GW271431] is strictly less than 4%?
0.0

Does c1ccc(-c2cc(-c3c[nH]nc3-c3ccccn3)ccn2)cc1 [GW576604] have %Inh strictly under 4%?
0.0

###

System: TXK
pKd: −log10 of the molar value.
measure.name: pKd

Using the record for O=C(NCCNc1ccnc(Nc2ccc(F)cc2)n1)c1cc2ccccc2s1 , report its pKd.
< 5.00

###

Parameter 'readout' = Kd; parameter 'system' = VRK2.

GET /values?readout=Kd&item= CC(C)(C)n1cnc2c(N)ncnc21 [SKF-97359]
> 10 µM

# query: Kd of entry COc1ccc(Nc2nccc(N3CCC(NC(=O)Nc4cccc(C(C)=O)c4)C3)n2)cc1 (centres unmarked) [GSK1379731]
> 10 µM

###

System: MAP3K2
Settings: concentration: 1 μM, replicates: in singlicate; n = 1
For each entry below, report its %Inh value.
State the answer as a number, implicitly in %.

What %Inh value was documented for this compound, NCC(NC(=O)c1cc(-c2cn[nH]c2)c(-c2ccnc3[nH]ccc23)s1)c1ccccc1.O=C(O)C(F)(F)F.O=C(O)C(F)(F)F (stereo not shown) [GSK1325775] ?
8

Would you kindly share the measured %Inh for CC(C)Oc1ccc2c(-c3ccnc(Nc4ccc(N5CCN(C)CC5)cc4)n3)cnn2n1 [GW696155] ?
83

What does the data say about its %Inh? Entry: Nc1nc(-c2ccc3c(N)n[nH]c3c2)cc(N2CCCC2)n1 [GSK2227430]
0

Looking for the measured %Inh of CN(C1=C(c2ccccc2)C(=O)NC1=O)c1ccccc1 [SB-334860] , can you help?
2

Any idea what %Inh was measured for Cc1c2ccc(N(C)c3ccnc(Nc4cccc(S(N)(=O)=O)c4)n3)cc2nn1Cc1ccccc1.Cl.Cl [GW787226] ?
31

Any idea what %Inh was measured for Cc1nnc(-c2ccc(C)c(-c3ccc(C(=O)Nc4ccc(NS(C)(=O)=O)cc4)cc3)c2)o1 [GW702865] ?
0

Would you kindly share the measured %Inh for O=C(NOCC1CC1)c1ccc(F)c(F)c1Nc1ccc(I)cc1Cl ?
0

Which %Inh reading was recorded for the compound Fc1ccc(-c2nn3c(OCC(F)(F)F)cccc3c2-c2ccncc2)cc1 [GW514784] ?
0

%Inh for Cc1nnc(-c2ccc3ncc(-c4ccc(S(C)=O)cc4)n3c2)o1 (stereo not shown) ?
8

Which %Inh value belongs to COc1ccc(Nc2nccc(N3CCC(NC(=O)Nc4cc(C)ccc4C)C3)n2)cc1 (stereo not shown) [GSK1379741] ?
5

Please report the recorded %Inh for O=C(Nc1n[nH]c2cc(-c3cccc(F)c3)ccc12)C1CC1 [SB-735464] .
5

Quick check: %Inh of CCCCCc1nc2c(N)ncnc2n1CCCCC [SKF-97255] ?
29

Any idea what %Inh was measured for c1ccc(-c2n[nH]cc2-c2ccnc3ccccc23)nc1 [GW271431] ?
11

May I ask what %Inh has been recorded for N#Cc1ccc(-c2cc(-c3c[nH]nc3-c3ccccn3)ccn2)cc1 [GW693028] ?
0

Tell me the measured %Inh of COc1ccc(S(=O)(=O)NC2CCN(c3cc(C)nc(Nc4cccc(C#N)c4)n3)CC2)cc1.O=C(O)C(F)(F)F [GSK1653539] , please.
0

I'd like to know its %Inh. The compound in question is CCn1cnc2c(N)ncnc21 [GW345098]
9

State the recorded %Inh for this entry: Cc1nnc(-c2ccc3occ(-c4ccc(C(C)O)cc4)c3c2)o1 (stereo not shown)
3

Any idea what its %Inh is? The compound is O=C1Cc2cc(Nc3nc(NCc4cccc(S(=O)(=O)C(F)(F)F)c4)ncc3C(F)(F)F)ccc2N1
12

# query: %Inh of entry CN1c2ccc(CNc3ccc(F)cc3)cc2-c2c(cnn2C)S1(=O)=O
11

Which %Inh reading was recorded for the compound CC(C)(C)n1cnc2c(N)ncnc21 [SKF-97359] ?
0

Give the measured %Inh of COc1cc2c(cc1OCCN1CCN(C)CC1)ncc1c3ccc(C#N)cc3[nH]c21 .
0

Return reported %Inh; argument: CSc1ccc(-c2cc3ncnc(SCC(=O)O)c3s2)cc1
0

State the recorded %Inh for this entry: COc1ccc(COc2cc(-n3cnc4ccccc43)sc2C(N)=O)cc1 [GSK1024304]
0

Which measured %Inh value corresponds to Cl.Oc1cccc(Nc2ccnc3cc(-c4ccncc4)ccc23)c1 [GW494601] ?
76

GET /values?readout=%Inh&item= O=C(NCCNc1ccnc(Nc2ccc(F)cc2)n1)Nc1ccccc1F [GSK1379880]
0

I have this compound here, COc1ccc(Nc2ncc(C#N)c(Nc3ccccc3C(N)=O)n2)cc1N1CCN(C)CC1.Cl [GSK1558669] , and I need its recorded %Inh.
99.2

Quick one: %Inh for O=C(NCCCN1CCOCC1)c1cccc(Nc2nccc(Nc3ccc(Oc4ccccc4)cc3)n2)c1 [GW663929] ?
0

State the recorded %Inh for this entry: Cc1c(Cn2c(C)nn3c(=O)cc(N4CCOC(C)C4)nc23)cccc1C(F)(F)F (stereo not shown) [GSK2344444]
9

Each recorded value in this set is attributed to paper PMC5540273.
